src = PubChem BioAssay (NCI)

- assayDetails: NCI Yeast Anticancer Drug Screen. Data for the mec2-1 strain (AID 157)
- measurementContext: S. cerevisiae mec2-1 strain, at 5.0 µM (retest, dose inferred, filed as 0.5)
The panel holds about 79,000 compounds, 15% with a hit somewhere; the sample as a whole holds those more often. Calls of active or inactive are those of the source. Cut-off read from the data, not from the text of the source: active = growth inhibition above about 70%; inactive = the rest.
Would you mind answering with one of these outcomes? active, inactive

Worked set:
compound=O=C([O-])c1ccccc1[I+]c1ccc(C2CCCCC2)cc1 assignedclass=inactive
compound=Cc1cc(C)c(CCCC(=O)c2c(C)cc(C)cc2C)c(C)c1 assignedclass=inactive
compound=Cn1cc(NC(=O)c2cc(NC(=O)CCCCCCC(=O)Nc3cc(C(=O)Nc4cc(C(=O)NCCC(=N)N)n(C)c4)n(C)c3)cn2C)cc1C(=O)NCCC(=N)N assignedclass=active

q: Name the outcome recorded for O=c1[nH]c2cc(Cl)ccc2nc1/C=C(\O)c1ccccn1 in the assay.
a: inactive

q: // return assay outcome for [N-]=[N+]=Nc1c(C=O)c(=O)n(-c2ccccc2)c2ccccc12
a: inactive
